system: 282377-053-R-J1-PDC complex spheroid viability; experiment: Anticancer human tumor 282377-053-R-J1-PDC patient-derived colon adenocarcinoma cell line growth inhibition [POLQ]; settings: curve of first compound; second compound 0.0316 µM;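 further: spheroids exposed to compounds for seven days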
endpoint_name: IC50

IC50 lookup needed for O=c1[nH]cc(F)c(=O)[nH]1 + COC1C(OC(N)=O)C(O)C(Oc2ccc3c(O)c(NC(=O)c4ccc(O)c(CC=C(C)C)c4)c(=O)oc3c2C)OC1(C)C , thanks.
> 10 µM

IC50 lookup needed for O=c1[nH]cc(F)c(=O)[nH]1 + Nc1ccc(C#CCN(C(=O)Cc2ncc(C(F)(F)F)cc2C(F)(F)F)c2ccc(F)cc2)nn1 , thanks.
> 10 µM

IC50 lookup needed for O=C(Nc1ccc(O)c(NS(=O)(=O)c2ccc(F)cc2)c1)c1ccc(-c2ccccc2)cc1 + COC1C(OC(N)=O)C(O)C(Oc2ccc3c(O)c(NC(=O)c4ccc(O)c(CC=C(C)C)c4)c(=O)oc3c2C)OC1(C)C , thanks.
> 10 µM

IC50 lookup needed for CCc1cc2c(N3CCc4c(cc(Cn5ccnc5)cc4-c4cn(C)nc4C(F)(F)F)C3=O)cc(C)nc2c(OC)n1 + Cc1cccc(N(C)C(=O)C2C(O)CCN2c2nc(C)cc(C(F)(F)F)c2C#N)c1 , thanks.
> 10 µM

IC50 lookup needed for Nc1ccn(C2OC(CO)C(O)C2(F)F)c(=O)n1 (configuration not stated) + Cc1cccc(N(C)C(=O)C2C(O)CCN2c2nc(C)cc(C(F)(F)F)c2C#N)c1 , thanks.
0.0981 µM

IC50 lookup needed for CCc1cc2c(N3CCc4c(cc(Cn5ccnc5)cc4-c4cn(C)nc4C(F)(F)F)C3=O)ccnc2c(OC)n1 + COC1C(OC(N)=O)C(O)C(Oc2ccc3c(O)c(NC(=O)c4ccc(O)c(CC=C(C)C)c4)c(=O)oc3c2C)OC1(C)C , thanks.
> 10 µM

IC50 lookup needed for O=C(c1cc(Cc2n[nH]c(=O)c3ccccc23)ccc1F)N1CCN(C(=O)C2CC2)CC1 + COC1C(OC(N)=O)C(O)C(Oc2ccc3c(O)c(NC(=O)c4ccc(O)c(CC=C(C)C)c4)c(=O)oc3c2C)OC1(C)C , thanks.
> 10 µM

IC50 lookup needed for C=CCn1c(=O)c2cnc(Nc3ccc(N4CCN(C)CC4)cc3)nc2n1-c1cccc(C(C)(C)O)n1 + Cc1cccc(N(C)C(=O)C2C(O)CCN2c2nc(C)cc(C(F)(F)F)c2C#N)c1 , thanks.
> 1 µM

IC50 lookup needed for CCc1c2c(nc3ccc(O)cc13)-c1cc3c(c(=O)n1C2)COC(=O)[C@]3(O)CC + Cc1cccc(N(C)C(=O)C2C(O)CCN2c2nc(C)cc(C(F)(F)F)c2C#N)c1 , thanks.
0.0503 µM

IC50 lookup needed for CC[C@@]1(O)C(=O)OCc2c1cc1n(c2=O)Cc2cc3c(CN(C)C)c(O)ccc3nc2-1 + Cc1cccc(N(C)C(=O)C2C(O)CCN2c2nc(C)cc(C(F)(F)F)c2C#N)c1 , thanks.
> 0.1 µM

IC50 lookup needed for CCCS(=O)(=O)Nc1ccc(F)c(C(=O)c2c[nH]c3ncc(-c4ccc(Cl)cc4)cc23)c1F + COC1C(OC(N)=O)C(O)C(Oc2ccc3c(O)c(NC(=O)c4ccc(O)c(CC=C(C)C)c4)c(=O)oc3c2C)OC1(C)C , thanks.
3.55 µM

IC50 lookup needed for CCc1cc2c(N3CCc4c(cc(Cn5ccnc5)cc4-c4cn(C)nc4C(F)(F)F)C3=O)cc(C)nc2c(OC)n1 + Nc1ccc(C#CCN(C(=O)Cc2ncc(C(F)(F)F)cc2C(F)(F)F)c2ccc(F)cc2)nn1 , thanks.
> 10 µM

IC50 lookup needed for COc1cc2cc(C(=O)CCC(=O)O)sc2cc1OC + Nc1ccc(C#CCN(C(=O)Cc2ncc(C(F)(F)F)cc2C(F)(F)F)c2ccc(F)cc2)nn1 , thanks.
> 10 µM

IC50 lookup needed for C#Cc1c(F)ccc2cc(O)cc(-c3ncc4c(N5CC6CCC(C5)N6)nc(OCC56CCCN5CC(F)C6)nc4c3F)c12 (configuration not stated) + Cc1cccc(N(C)C(=O)C2C(O)CCN2c2nc(C)cc(C(F)(F)F)c2C#N)c1 , thanks.
> 10 µM

IC50 lookup needed for Nc1ccn(C2OC(CO)C(O)C2(F)F)c(=O)n1 (configuration not stated) + COC1C(OC(N)=O)C(O)C(Oc2ccc3c(O)c(NC(=O)c4ccc(O)c(CC=C(C)C)c4)c(=O)oc3c2C)OC1(C)C , thanks.
0.0837 µM

IC50 lookup needed for COc1cc(C2c3cc4c(cc3C(OC3OC5COC(C)OC5C(O)C3O)C3COC(=O)C23)OCO4)cc(OC)c1O (configuration not stated) + Cc1cccc(N(C)C(=O)C2C(O)CCN2c2nc(C)cc(C(F)(F)F)c2C#N)c1 , thanks.
> 10 µM

IC50 lookup needed for CCc1c2c(nc3ccc(O)cc13)-c1cc3c(c(=O)n1C2)COC(=O)[C@]3(O)CC + COC1C(OC(N)=O)C(O)C(Oc2ccc3c(O)c(NC(=O)c4ccc(O)c(CC=C(C)C)c4)c(=O)oc3c2C)OC1(C)C , thanks.
0.0921 µM
